- test-details: Acute toxicity, single oral or intravenous administration to mice
- setup-conditions: mouse, in vivo; i.v., single intravenous administration to mice; read-out: LD50 i.v.
For each entry below, report its LD50 value.

Query: Could you please provide reported LD50 for CC[C@H](CC[C@@H](C)[C@H]1CC[C@H]2[C@@H]3CC[C@H]4C[C@@H](OC(=O)OCCOP(=O)([O-])OCC[N+](C)(C)C)CC[C@]4(C)[C@H]3CC[C@]12C)C(C)C ? Thanks!
Response: 250 mg/kg

Query: Could you please provide reported LD50 for CC[C@H](CC[C@@H](C)[C@H]1CC[C@H]2[C@@H]3CC[C@H]4C[C@@H](OC(=O)CCCOP(=O)([O-])OCC[N+](C)(C)C)CC[C@]4(C)[C@H]3CC[C@]12C)C(C)C ? Thanks!
Response: 250 mg/kg

Query: Could you please provide reported LD50 for CC[C@H](/C=C/[C@@H](C)[C@H]1CC[C@H]2[C@@H]3CC=C4C[C@@H](OCCOP(=O)([O-])OCC[N+](C)(C)C)CC[C@]4(C)[C@H]3CC[C@]12C)C(C)C ? Thanks!
Response: 500 mg/kg

Query: Could you please provide reported LD50 for CC(C)CCC[C@@H](C)[C@H]1CC[C@H]2[C@@H]3CC=C4C[C@@H](OCCOP(=O)([O-])OCC[N+](C)(C)C)CC[C@]4(C)[C@H]3CC[C@]12C ? Thanks!
Response: 250 mg/kg
